# testTarget: T1, human CD98hc endogenously expressed on HCMEC/D3 cells (human)
# T1 construct: human brain endothelial cell line
# T1 chain: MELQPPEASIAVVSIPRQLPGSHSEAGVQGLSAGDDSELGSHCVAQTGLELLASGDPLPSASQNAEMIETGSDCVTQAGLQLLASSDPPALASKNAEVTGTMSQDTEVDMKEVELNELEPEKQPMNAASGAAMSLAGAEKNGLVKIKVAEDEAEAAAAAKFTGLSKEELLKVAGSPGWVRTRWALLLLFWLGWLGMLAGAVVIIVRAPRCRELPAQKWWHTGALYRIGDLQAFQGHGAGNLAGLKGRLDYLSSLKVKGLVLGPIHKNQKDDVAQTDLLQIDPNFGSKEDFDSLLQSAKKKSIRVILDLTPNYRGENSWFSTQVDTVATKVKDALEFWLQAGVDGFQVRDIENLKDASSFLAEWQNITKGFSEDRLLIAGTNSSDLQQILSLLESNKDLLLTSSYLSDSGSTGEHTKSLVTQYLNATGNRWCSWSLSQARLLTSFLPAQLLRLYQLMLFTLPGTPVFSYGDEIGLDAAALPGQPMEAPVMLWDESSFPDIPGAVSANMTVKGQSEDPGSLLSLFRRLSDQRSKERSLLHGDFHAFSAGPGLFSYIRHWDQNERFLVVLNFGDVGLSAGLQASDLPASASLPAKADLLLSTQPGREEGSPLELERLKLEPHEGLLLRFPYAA
# assayRemarks: FACS, hybridoma supernatant
Recorded MFI ratio over secondary antibody values for a group of binders are listed next.

[
  {
    "binder": "CD98HC.04.054 (antibody, V domains shown, hybridoma IgG) VH: QVQLQQSAAELARPGASVKMSCETSGYTFTRYTMNWVKQRPGQGLDWIGYINPSSGYAEYNQKFRGKTTLTADKSSSTAYIQLNSLTSEDSAVYYCVRYDGNYVYWGQGTTLTVSS VL: DIVMTQSQKFMSTSFGDRVDITCKASQNVGSAVAWYQQKPGQSPKLLIYSASNRYTGVPDRFTGSGSGTDFTLTINNMQSADLADYFCQQYNFYPLTFGAGTKLDLK",
    "MFI ratio over secondary antibody": 218
  },
  {
    "binder": "CD98HC.03.010 (antibody, V domains shown, hybridoma IgG) VH: EVQLQQSGTELVKPGASVKLSCTASGLDIKDTYLHWVKQRPEQGLEWIGKIDPANGNTKYNPKFQGKATITADTSSNTAYLQLSSLTSEDTAVHYCTTPYYSGSSYGDYWGQGTTLTVSS VL: QIVLTQSPAIMSASPGEKVTLTCSASSSVSSSYLYWYQQKPGSSPKLWIYSTSNLASGVPARFSGSGSGTSYSLTISSMEAEDAASYFCHQWSRYPLTFGAGTKLELK",
    "MFI ratio over secondary antibody": 190
  },
  {
    "binder": "CD98HC.03.004 (antibody, V domains shown, hybridoma IgG) VH: DVQLQESGPGLVKPSQSLSLTCTVTGYSITNNYAWNWIRRFPGNKLEWMAYISYSGYTSYNPSLKSRISITRDTSKNQFFLQLNSVTTEDTATYYCTGYFYYYGGGSFDYWGQGTTLTVSS VL: QAVVTQESALTTSPGETVTLTCRSSTGAVTTSNFANWVQEKPDHLFTGLIRGSNNRAPGVPARFSGSLIGDKAALTITGARTEDEAIYFCALWYSDHWVFGGGTKLTVL",
    "MFI ratio over secondary antibody": 189
  }
]
